Origin of the recorded values: paper PMC5715112

B1: VH59 fused to the VP16 activation domain (pEF-VP16, CHO cells) / GAL4 DNA binding domain (DBD)-LEDGF IBD fusion (pM1, CHO cells) [not stated] (parent complex)
chain 1: EVQLLESGGGLVQPGGSLRLSCAASGFTFSTFSMNWVRQAPGKGLEWVSYISRTSKTIYYADSVKGRFTISRDNSKNTLYLQMNSLRAEDTAVYYCARGGWALGDEIPSSFLEFDYWGQGTLVTVS
chain 2: ETSMDSRLQRIHAEIKNSLKIDNLDVNRCIEALDELASLQVTMQQAQKHTEMITTLKKIRRFKVSQVIMEKSTMLYNKFKNMFLVGE

Variants of: B1
Assay: mammalian two-hybrid luciferase reporter assay in CHO cells; 48 h after transfection; Firefly luciferase normalised to Renilla; read off a plot
Answer each item with its documented response.

1. chain 2 F62A; ~0.05
2. chain 2 K63A; ~0.35
3. chain 2 K58A; ~0.09
4. chain 2 R61A; ~2

Now turn to the next variant.
So what's the measured response for this one? chain 2 V64A
~0.12
